assayedSystem: Large T antigen (Simian virus 40);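 also: Confirmatory-stage PubChem screen for compounds that inhibit SV40 T antigen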
Sequence (P03070 whole entry): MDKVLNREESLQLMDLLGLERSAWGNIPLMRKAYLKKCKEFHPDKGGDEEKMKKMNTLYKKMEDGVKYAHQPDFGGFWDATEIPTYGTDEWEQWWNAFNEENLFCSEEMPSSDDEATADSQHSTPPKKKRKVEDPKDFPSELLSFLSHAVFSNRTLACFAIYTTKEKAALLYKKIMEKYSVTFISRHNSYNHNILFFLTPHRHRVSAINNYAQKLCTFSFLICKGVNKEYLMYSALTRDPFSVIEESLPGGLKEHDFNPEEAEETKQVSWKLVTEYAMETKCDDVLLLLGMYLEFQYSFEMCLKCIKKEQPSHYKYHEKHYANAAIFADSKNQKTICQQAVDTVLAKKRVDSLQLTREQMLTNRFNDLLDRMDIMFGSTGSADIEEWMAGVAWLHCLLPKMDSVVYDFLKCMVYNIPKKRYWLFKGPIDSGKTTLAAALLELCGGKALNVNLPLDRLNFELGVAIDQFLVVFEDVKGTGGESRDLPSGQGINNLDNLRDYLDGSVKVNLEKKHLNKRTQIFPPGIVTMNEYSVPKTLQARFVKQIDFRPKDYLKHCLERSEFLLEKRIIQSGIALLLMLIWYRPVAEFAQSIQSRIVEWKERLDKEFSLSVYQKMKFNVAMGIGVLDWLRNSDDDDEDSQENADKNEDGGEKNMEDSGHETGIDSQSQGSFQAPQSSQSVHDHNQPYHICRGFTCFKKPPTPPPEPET
Type: functional, Betapolyomavirus macacae
The source made the active and inactive calls.
reportedProperty: IC50

structureNotation | obsValue
Cc1ccccc1-c1nnc(S)n1/N=C/C=C/c1ccco1 | 53 µM (active)
Nc1ccc2[nH]c(CCCO)nc2c1 | 21.2 µM (active)
O=[N+]([O-])c1cccc(S(=O)(=O)N/N=C/c2ccc(O)cc2)c1 | 10.6 µM (active)
COc1cc(/C=C2\C(=N)N3N=C(S(C)(=O)=O)SC3=NC2=O)ccc1OS(=O)(=O)c1ccc(C)cc1 | 64.6 µM (active)

====

List of AC50 values.
assayedSystem: Heat shock protein HSP 90-alpha (Homo sapiens, UniProt P07900)
Assay type: functional, organism-based
Calls of active or inactive are those of the source.
reportedProperty: AC50

compound | obsValue
Oc1ccc(C=NN=C2c3ccccc3-c3ccccc32)c(O)c1 | 12.1 µM (active)
CCN(CC)C1CC(=O)N(c2cccc(Cl)c2)C1=O (stereo unspecified) | 2.21 µM (active)
O=c1c2c3c(sc2ncn1/N=C/c1ccc([N+](=O)[O-])o1)CCCC3 | 0.637 µM (active)
CC(C)=CCc1c(O)ccc(C2COc3c(CC=C(C)C)c(O)cc(O)c3C2=O)c1O (stereo unspecified) | 15.9 µM (active)
c1ccc(-c2c(-c3ccccc3)n(Cc3ccco3)c3ncnc(NCCCn4ccnc4)c23)cc1 | 2.53 µM (active)
N#C/C(=C/c1ccc(O)cc1)C(=O)NCc1ccc(Cl)cc1 | 3.08 µM (active)

====

Dear all, this message contains AC50 results, target or system Cytochrome P450 1A2 (Homo sapiens, UniProt P05177).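 Also: PubChem cytochrome P450 panel assay, CYP1A2 panel member.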
reportedProperty: AC50

compound | obsValue
O=C(O)Cc1cccnc1C(=O)O | 39.8 µM (inconclusive)
O=C(CCNC(=O)c1ccc(Br)o1)NCc1ccccn1 | 14.1 µM (inconclusive)
COc1ccc(N2C(=O)c3ccccc3NC2c2ccc(OC)c(CSc3ccccn3)c2)cc1 (stereo not given) | 15.8 µM (inconclusive)
COc1ccc(-n2c(=O)c(-c3cc(F)cc(F)c3)nc3cnc(N4CCNCC4)nc32)cc1 | 12.6 µM (inconclusive)
O=C(NCCC1=CCCCC1)C1CCCN(c2nc3ccccc3o2)C1 (stereo not given) | 15.8 µM (inconclusive)
CCC(CC)C(=O)c1c[nH]c(C(=O)NCCc2ccccn2)c1 | 14.1 µM (inconclusive)
C#CCN1C(C)=C(C(=O)OC)[C@@H](c2cccc([N+](=O)[O-])c2)C(C(=O)OCC)=C1C | 12.6 µM (inconclusive)
Cn1c(=O)c2cc(S(=O)(=O)NCCC(=O)NCCc3ccc(Cl)cc3)ccc2n(C)c1=O | 0.0398 µM (inconclusive)
Cc1ccc(Cn2cnc3c(nnn3Cc3ccc(Cl)cc3)c2=O)cc1 | 25.1 µM (inconclusive)
CN1CCc2nc3sc(C(=O)NC(C)(C)C)c(N)c3cc2C1 | 14.1 µM (inconclusive)

====

protocolText: Trypanosoma cruzi growth suppression in host cells – NIH3T3 host cells, beta-gal luminescence, confirmation (AID 2044);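 also: intracellular parasites grown in NIH/3T3 mouse fibroblasts as host cells; luminescent beta-galactosidase reporter signal from transgenic T. cruzi replicating inside host cells; inhibitors lower the luminescence signal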
Type: functional, cell-based
Active and inactive are the calls of the source.
reportedProperty: EC50

compound | reportedProperty | obsValue
O=C(/C=C/c1ccc([N+](=O)[O-])s1)N1CCCC1 | EC50 | 1030 nM (active)
COc1ccc(C(NC(C)=O)c2cc(Cl)c3cccnc3c2O)cc1 (centres undefined) | EC50 | 1470 nM (active)
COc1cc(Br)c(/C=C/c2ccc3cccc(O)c3n2)cc1OC | EC50 | 831 nM (active)
CN(CC(=O)Nc1ccc(S(=O)(=O)N2CCCC2)cc1)Cc1ccc(Cl)cc1 | EC50 | 1580 nM (active)
